# ASSAY TARGET: Pantothenate synthetase (Mycobacterium tuberculosis (strain ATCC 25618 / H37Rv)) (UniProt P9WIL5)
# Sequence (P9WIL5 whole entry, looked up): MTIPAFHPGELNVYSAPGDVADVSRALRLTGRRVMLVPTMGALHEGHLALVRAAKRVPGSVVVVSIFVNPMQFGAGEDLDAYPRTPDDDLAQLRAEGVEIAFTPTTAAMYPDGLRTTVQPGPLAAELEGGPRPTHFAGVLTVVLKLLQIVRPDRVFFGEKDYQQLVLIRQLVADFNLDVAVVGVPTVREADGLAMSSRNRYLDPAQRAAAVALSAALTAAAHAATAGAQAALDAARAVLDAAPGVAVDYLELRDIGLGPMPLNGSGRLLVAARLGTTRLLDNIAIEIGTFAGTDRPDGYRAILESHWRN
# ASSAY NAME: Coupled enzyme confirmation of inhibitors against recombinant Mtb PanC (AID 375);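 note: 0% = full reaction with vehicle and 100% = no enzyme background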
# EXPERIMENTAL CONTEXT: coupled enzyme assay; at 10 µM, hits give high values
ATTRIBUTE MEASURED: inhibition (%)
I only need the number, in %, no unit after it.

* COc1ccc(-n2ncc3c(NCc4ccc5c(c4)OCO5)ncnc32)cc1 | 0
* Cc1cc(/C=c2/sc3nc4ccccc4n3c2=O)c(C)n1-c1ccccn1 | 1
* CC(C)(C)NC(=O)C(c1ccco1)N(C(=O)Cn1nnc(-c2ccc(F)cc2)n1)c1ccccc1 (stereo unspecified) | 0
* COC(=O)c1cc(=O)n2c(-c3ccc(OC)cc3)csc2n1 | 3

Need inhibition, item O=C(NCc1ccccn1)c1cccs1
0

Need inhibition, item Cc1ccc(-c2nnc(SCC(=O)N3c4ccccc4NC(=O)C3(C)C)n2N)cc1
1

Need inhibition, item O=C(CSc1n[nH]c(-c2ccco2)n1)Nc1sc2c(c1C(=O)Nc1ccccc1)CCCC2
0

Need inhibition, item COc1cc(NC(=O)c2cc(-n3cnnc3)ccc2Cl)cc(OC)c1
2

Need inhibition, item O=C(c1cccs1)C1CN2CCC1CC2 (stereo unspecified)
0

Need inhibition, item CCC(C)(C(=O)NC1CCCCC1)N(Cc1ccco1)C(=O)c1ccc2c(c1)OCO2 (stereo unspecified)
0

Need inhibition, item CCOc1ccc(-n2c(C)nc3c(cnn3-c3ccc(Cl)cc3)c2=O)cc1
4

Need inhibition, item CCOC(=O)N1CCN(C(=O)CN(C)S(=O)(=O)c2ccc(OC)c(OC)c2)CC1
0

Need inhibition, item COc1ccc(C2CC(c3cccc(C)c3)n3ncnc3N2)cc1 (stereo unspecified)
0

Need inhibition, item CCN(CC)c1nc2cc(OC)ccc2cc1C#N
0

Need inhibition, item C=CCn1c(SCC(=O)NCC2CCCO2)nnc1C1CCCCC1 (stereo unspecified)
8

Need inhibition, item COC(=O)C1(C(=O)OC)Sc2ccccc2C1=O
3

Need inhibition, item Cc1cc(C)n(-c2nc3c(c(=O)n(Cc4ccc(Cl)c(Cl)c4)c(=O)n3C)n2C)n1
1

Need inhibition, item CCCC(C)C1C(C#N)=C(N)Oc2c1c(=O)oc1ccccc21 (stereo unspecified)
4

Need inhibition, item CC1CNCCN1S(=O)(=O)c1cccc2cnccc12 (stereo unspecified)
5

Need inhibition, item Cc1ccccc1NC(=O)CSc1nnc(Cc2cccn2C)n1-c1ccc(F)cc1
0

Need inhibition, item COCCn1c(=O)[nH]c2cc(C(=O)N3CCN(c4ccccc4OC)CC3)ccc2c1=O
2

Need inhibition, item CCOc1ccc(OCC)c(NC(=O)C2CCN(c3ncccn3)CC2)c1
0

Need inhibition, item COc1ccc2nc3oc(C(=O)NC4CCN(Cc5ccccc5)CC4)cc3cc2c1
1

Need inhibition, item CCOc1cccc(OCCCCn2ccnc2)c1
0

Need inhibition, item O=C1c2ccccc2S(=O)(=O)N1CC(O)Cn1c2ccccc2c2ccccc21 (stereo unspecified)
0

Need inhibition, item O=C(Nc1c(-c2ccccc2)nc2ccccn12)c1ccco1
0

Need inhibition, item CC(=O)Nc1ccc2c(c1)nc(CCNC(=O)c1ccccc1)n2C
0
